Biological target: T1, wild-type human PTH/PTHrP receptor (hP1R-WT) (human, UniProt Q03431 27-593)
T1 construct: whole, on cells; HKRK-B28 cells express ~280,000 receptors per cell; also called PTH-1 receptor; PTH-1R
T1 sequence (looked up): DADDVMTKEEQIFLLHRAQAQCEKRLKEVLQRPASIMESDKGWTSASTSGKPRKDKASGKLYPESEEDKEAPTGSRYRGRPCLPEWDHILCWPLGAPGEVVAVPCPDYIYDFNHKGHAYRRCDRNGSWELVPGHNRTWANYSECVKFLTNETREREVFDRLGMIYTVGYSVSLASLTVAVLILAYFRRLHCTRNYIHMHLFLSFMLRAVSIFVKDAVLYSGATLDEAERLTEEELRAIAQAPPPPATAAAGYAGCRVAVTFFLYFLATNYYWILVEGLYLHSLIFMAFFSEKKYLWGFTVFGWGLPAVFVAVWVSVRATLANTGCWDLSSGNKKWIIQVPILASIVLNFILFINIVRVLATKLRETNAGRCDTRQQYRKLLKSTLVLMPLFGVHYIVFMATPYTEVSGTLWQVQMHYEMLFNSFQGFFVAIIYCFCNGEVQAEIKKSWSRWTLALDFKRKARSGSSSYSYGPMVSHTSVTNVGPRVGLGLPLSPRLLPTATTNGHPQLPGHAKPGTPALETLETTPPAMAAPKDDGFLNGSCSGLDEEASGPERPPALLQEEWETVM
Experiment: competition binding, 125I-[Aib1,3,M]PTH(1-21) tracer, COS-7 cells expressing hP1R-WT
Square brackets hold non-standard residues; d marks the D form. Ends that are not written are not given here. hArg = N=C(N)NCCCC[C@H](N)C(=O)O; Aib = CC(C)(N)C(=O)O
Reported property: pIC50
One number for each entry, as −log10 of the molar value.

1) [Aib]V[Aib]EIQLMHQ[hArg]-NH2 (N-terminus assumed; SMILES CC[C@H](C)[C@H](NC(=O)[C@H](CCC(=O)O)NC(=O)C(C)(C)NC(=O)[C@@H](NC(=O)C(C)(C)N)C(C)C)C(=O)N[C@@H](CCC(N)=O)C(=O)N[C@@H](CC(C)C)C(=O)N[C@@H](CCSC)C(=O)N[C@@H](Cc1c[nH]cn1)C(=O)N[C@@H](CCC(N)=O)C(=O)N[C@@H](CCCCNC(=N)N)C(N)=O, also called 682 [Aib^1,3, M]PTH (1-11); [Aib^1,3,Gln^10,Har^11]PTH(1-11)) [[Aib^1,3,M]PTH(1-11)]; 4.80

Items follow; give pIC50 for each.
1. AVAEIQLMHQ[hArg]AKW-NH2 (N-terminus assumed; SMILES CC[C@H](C)[C@H](NC(=O)[C@H](CCC(=O)O)NC(=O)[C@H](C)NC(=O)[C@@H](NC(=O)[C@H](C)N)C(C)C)C(=O)N[C@@H](CCC(N)=O)C(=O)N[C@@H](CC(C)C)C(=O)N[C@@H](CCSC)C(=O)N[C@@H](Cc1c[nH]cn1)C(=O)N[C@@H](CCC(N)=O)C(=O)N[C@@H](CCCCNC(=N)N)C(=O)N[C@@H](C)C(=O)N[C@@H](CCCCN)C(=O)N[C@@H](Cc1c[nH]c2ccccc12)C(N)=O, X = Har; also called [M]PTH(1-14); 621 [M]PTH(1-14)) [[Ala^3,12,Gln^10,Har^11,Trp^14]PTH(1-14)amide]
2. AVSEIQLXHNLGKHLASVERXQWLRKKLQDVHNY (Nle (norleucine) at 8 and 21; C-terminal amide, also called 92 PTH(1-34); 92.5 PTH(1-34)) [[Nle^8,21,Tyr^34]PTH(1-34)amide (rat sequence)]
3. [Aib]V[Aib]EIQLMHQ[hArg]AKW-NH2 (N-terminus assumed; SMILES CC[C@H](C)[C@H](NC(=O)[C@H](CCC(=O)O)NC(=O)C(C)(C)NC(=O)[C@@H](NC(=O)C(C)(C)N)C(C)C)C(=O)N[C@@H](CCC(N)=O)C(=O)N[C@@H](CC(C)C)C(=O)N[C@@H](CCSC)C(=O)N[C@@H](Cc1c[nH]cn1)C(=O)N[C@@H](CCC(N)=O)C(=O)N[C@@H](CCCCNC(=N)N)C(=O)N[C@@H](C)C(=O)N[C@@H](CCCCN)C(=O)N[C@@H](Cc1c[nH]c2ccccc12)C(N)=O, also called 671 [Aib^1,3, M]PTH (1-14); 671 [Aib^1,3M]PTH(1-14)) [[Aib^1,3,M]PTH(1-14)]

[4.70, 7.92, 5.65]
